target_of_assay: NDM-1 (Klebsiella pneumoniae, UniProt C7C422)
Sequence (C7C422 whole entry, looked up, species assumed): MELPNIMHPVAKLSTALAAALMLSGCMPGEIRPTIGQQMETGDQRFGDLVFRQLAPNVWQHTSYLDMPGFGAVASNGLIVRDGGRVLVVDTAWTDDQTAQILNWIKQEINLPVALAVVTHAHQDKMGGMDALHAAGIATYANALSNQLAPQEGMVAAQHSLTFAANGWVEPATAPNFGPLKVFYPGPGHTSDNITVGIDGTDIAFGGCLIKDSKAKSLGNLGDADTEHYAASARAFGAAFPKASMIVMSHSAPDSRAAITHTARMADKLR
Format: biochemical
setup_conditions: fluorescence assay, CCF2-FA substrate, 2 hours at 25° C.
measured_endpoint: IC50 (nM)

{"molecule": "Nc1nc2c(-c3ccc(S(=O)(=O)N4CCN(CCO)CC4)c(S(N)(=O)=O)c3-c3nnn[nH]3)cccc2s1.O=C(O)C(F)(F)F [Example 92, trifluoroacetate]", "result_value": 0.609}

====

Test system: Pseudomonas aeruginosa PAO1 MB9798 (efflux+, IMP-1)
setup_conditions: ratio MITC95 PA 9798/MITC95 PA 9799; imipenem at 2 μg/mL

{"compound": "NC[C@H](N)CNS(=O)(=O)c1ccc(-c2cccnc2N)c(-c2nn[nH]n2)c1S(N)(=O)=O", "target_of_assay": "Pseudomonas aeruginosa PAO1 MB9798 (efflux+, IMP-1)", "Efflux ratio": 2.00}
{"compound": "NCCN1CC[C@@H](NS(=O)(=O)c2ccc(-c3cccc4[nH]c(N)nc34)c(-c3nn[nH]n3)c2S(N)(=O)=O)C1", "target_of_assay": "Pseudomonas aeruginosa PAO1 MB9798 (efflux+, IMP-1)", "Efflux ratio": 2.00}
{"compound": "NCCNS(=O)(=O)c1ccc(-c2cccc(NC[C@@H](O)CN)c2)c(-c2nn[nH]n2)c1S(N)(=O)=O", "target_of_assay": "Pseudomonas aeruginosa PAO1 MB9798 (efflux+, IMP-1)", "Efflux ratio": 2.00}
{"compound": "Nc1nc2c(-c3ccc(S(=O)(=O)NC4C[C@@H]5CN[C@H]4C5)c(S(N)(=O)=O)c3-c3nnn[nH]3)cccc2s1.O=CO (some centres unmarked)", "target_of_assay": "Pseudomonas aeruginosa PAO1 MB9798 (efflux+, IMP-1)", "Efflux ratio": 0.50}
{"compound": "NCCNS(=O)(=O)c1ccc(-c2cccc(-c3c[nH]c(N)n3)c2)c(-c2nn[nH]n2)c1S(N)(=O)=O", "target_of_assay": "Pseudomonas aeruginosa PAO1 MB9798 (efflux+, IMP-1)", "Efflux ratio": 2.00}
{"compound": "Nc1nc2c(-c3ccc(S(=O)(=O)NC[C@H]4CNCCN4)c(S(N)(=O)=O)c3-c3nn[nH]n3)cccc2[nH]1", "target_of_assay": "Pseudomonas aeruginosa PAO1 MB9798 (efflux+, IMP-1)", "Efflux ratio": 1.00}
{"compound": "Nc1nc2c(-c3ccc(S(=O)(=O)N[C@]4(CO)CCNC4)c(S(N)(=O)=O)c3-c3nnn[nH]3)cccc2[nH]1", "target_of_assay": "Pseudomonas aeruginosa PAO1 MB9798 (efflux+, IMP-1)", "Efflux ratio": 0.50}
{"compound": "Nc1nc2c(-c3ccc(S(=O)(=O)N[C@H]4CNC[C@H]4O)c(S(N)(=O)=O)c3-c3nnn[nH]3)cccc2[nH]1", "target_of_assay": "Pseudomonas aeruginosa PAO1 MB9798 (efflux+, IMP-1)", "Efflux ratio": 0.70}
{"compound": "N[C@@H]1CNC[C@@H]1NS(=O)(=O)c1ccc(-c2cccn3ccnc23)c(-c2nn[nH]n2)c1S(N)(=O)=O", "target_of_assay": "Pseudomonas aeruginosa PAO1 MB9798 (efflux+, IMP-1)", "Efflux ratio": 1.00}
{"compound": "Nc1nc2c(-c3ccc(S(=O)(=O)N[C@H]4CCNC4)c(S(N)(=O)=O)c3-c3nnn[nH]3)cccc2s1", "target_of_assay": "Pseudomonas aeruginosa PAO1 MB9798 (efflux+, IMP-1)", "Efflux ratio": 0.50}
{"compound": "NC[C@H](N)CNS(=O)(=O)c1ccc(-c2cnccc2N)c(-c2nn[nH]n2)c1S(N)(=O)=O", "target_of_assay": "Pseudomonas aeruginosa PAO1 MB9798 (efflux+, IMP-1)", "Efflux ratio": 2.00}
{"compound": "Nc1nc2c(-c3ccc(S(=O)(=O)NCc4ccccn4)c(S(N)(=O)=O)c3-c3nnn[nH]3)cccc2s1.O=C(O)C(F)(F)F", "target_of_assay": "Pseudomonas aeruginosa PAO1 MB9798 (efflux+, IMP-1)", "Efflux ratio": 4.00}
{"compound": "NC[C@H](N)CNS(=O)(=O)c1ccc(-c2cnc(N)s2)c(-c2nn[nH]n2)c1S(N)(=O)=O", "target_of_assay": "Pseudomonas aeruginosa PAO1 MB9798 (efflux+, IMP-1)", "Efflux ratio": 2.00}
{"compound": "Nc1nc2c(-c3ccc(S(=O)(=O)N[C@@H]4CCNC4)c(S(N)(=O)=O)c3-c3nnn[nH]3)cccc2s1", "target_of_assay": "Pseudomonas aeruginosa PAO1 MB9798 (efflux+, IMP-1)", "Efflux ratio": 0.50}
